Cited source for all entries: patent US20210198277A1

- testedOn: human EHMT2 913-1193 (Homo sapiens)
- Construct: recombinant purified human EHMT2 913-1193, Viva; purchased Viva
- Sequence (Q96KQ7 913-1193): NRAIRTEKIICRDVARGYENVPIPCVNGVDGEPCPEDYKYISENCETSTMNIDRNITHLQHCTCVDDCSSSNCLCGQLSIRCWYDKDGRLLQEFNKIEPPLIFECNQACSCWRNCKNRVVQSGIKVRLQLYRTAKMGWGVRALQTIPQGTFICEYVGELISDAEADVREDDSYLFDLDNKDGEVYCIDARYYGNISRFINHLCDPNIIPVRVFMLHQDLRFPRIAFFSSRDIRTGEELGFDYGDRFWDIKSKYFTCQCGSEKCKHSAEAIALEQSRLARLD
- testSummary: EHMT2 enzyme assay on histone peptide substrate (EHMT2 PEP)
- Type: biochemical
- conditionInfo: recombinant human EHMT2 913-1193, histone H3 1-15 peptide, balanced conditions; read-out: EHMT2 PEP (IC50 μM)
parameterMeasured: IC50

Please review the entries below; each comes with its answer.
> print(dat)
                                   compound                             testedon  testresult
1  CCn1nc(Nc2nccc3[nH]ccc23)cc1COCCN1CCCC1 [Compound 471]  human EHMT2 913-1193 (Homo sapiens)  1 to 10 µM
2  COc1ccc(NC2CCNCC2)cc1OCCCN1CCCC1 [Compound 572]  human EHMT2 913-1193 (Homo sapiens)     > 10 µM

(Q) Write down the reported IC50 (system: human EHMT2 913-1193 (Homo sapiens)) of CNc1cc(C)nc(Nc2ccc(OC)c(OC3CCN(C)CC3)c2)n1 [Compound 455]
(A) > 10 µM
